- Test system: U251 CNS
- experiment.summary: NCI tumour cell line growth inhibition, 48 h
reported.endpoint: TGI (µM)
Your answer should be a plain number; it is taken to be in µM.

Request: // Input: `COc1nc(Cl)nc(N[C@H](C)c2c3ccccc3cc3ccccc23)n1` . Output its TGI only.
Result: 31.9

***
Request: // Input: CCCCNC(c1ccc(Cl)cc1)C(O)c1ccc(Cl)cc1 (stereo not given) . Output its TGI only.
Result: 3.65

* * *

- Test system: U251 CNS
- experiment.summary: NCI tumour cell line growth inhibition, 48 h
reported.endpoint: TGI

Known TGI results, listed for orientation:
Request: // Input: `COc1cc2c(/C=C3/C(=O)Nc4ccccc43)c(Cl)n(Cc3ccc(Cl)cc3)c2cc1C` . Output its TGI only.
Result: 1.23 µM

Request: // Input: `CCOc1c(Br)cc(Br)cc1C=C(C#N)C#N` . Output its TGI only.
Result: > 10 µM

Request: // Input: `C[C@H]1S[C@@H](c2ccc(Cl)cc2Cl)N(NC(=O)c2ccncc2)C1=O` . Output its TGI only.
Result: > 100 µM

***
Request: // Input: `O=C(Nc1sc2c(c1C(=O)O)CCCC2)c1ccco1` . Output its TGI only.
Result: > 50 µM

Request: // Input: COC(=O)C1CC(c2ccc(OC)c(OC)c2)OC1=O (mixture of isomers) . Output its TGI only.
Result: > 100 µM

Request: // Input: `Nc1c(C(=O)c2ccc(Cl)c(Cl)c2)[nH]c(NCc2ccccc2)c1C(=S)Nc1ccccc1` . Output its TGI only.
Result: 15.7 µM

Request: // Input: `O=C(Nc1ccccc1)N1CCN(C(=O)Nc2ccccc2)C1=S` . Output its TGI only.
Result: > 100 µM

Request: // Input: `N#C/C(=C\c1ccc2[nH]ccc2c1)C(=O)NCCCCNC(=O)/C(C#N)=C/c1ccc2[nH]ccc2c1` . Output its TGI only.
Result: > 31.6 µM

Request: // Input: O=C1NC(O)n2c(=O)[nH]c(=O)n21 (configuration not stated) . Output its TGI only.
Result: > 100 µM

Request: // Input: `Cn1c(COC(=O)NCCc2ccccn2)nc2c(N3CCOCC3)nc(Cl)nc21` . Output its TGI only.
Result: 3.34 µM

Request: // Input: C=C(C)C1CC(=O)C(C)=C(O)C1 (configuration not stated) . Output its TGI only.
Result: > 100 µM

Request: // Input: `CC(C)(C)C(=O)Nc1c(C=O)ccc2[nH]cnc12` . Output its TGI only.
Result: > 100 µM

Request: // Input: `Cc1c(C)c([N+](=O)[O-])c2c(c1N)C(=O)c1ccccc1C2=O` . Output its TGI only.
Result: > 100 µM

Request: // Input: `Cc1c(C)c2c(c(N)c1C#N)C(=O)N(N)C2=O` . Output its TGI only.
Result: > 100 µM

Request: // Input: O=P1(N(CCCl)CCCl)Oc2ccc(Cl)cc2C(C(Cl)(Cl)Cl)c2cc(Cl)ccc2O1 (configuration not stated) . Output its TGI only.
Result: 29.2 µM
